Biological target: acetylcholinesterase (from human erythrocytes) (Homo sapiens, UniProt P22303)
Construct: acetylcholinesterase (from human erythrocytes, purchased from Sigma-Aldrich, Seoul, Korea); purchased Sigma-Aldrich, Seoul, Korea; host or cells: human erythrocytes (natural source)
Sequence (P22303 32-617 isoform P22303-2 limits assumed): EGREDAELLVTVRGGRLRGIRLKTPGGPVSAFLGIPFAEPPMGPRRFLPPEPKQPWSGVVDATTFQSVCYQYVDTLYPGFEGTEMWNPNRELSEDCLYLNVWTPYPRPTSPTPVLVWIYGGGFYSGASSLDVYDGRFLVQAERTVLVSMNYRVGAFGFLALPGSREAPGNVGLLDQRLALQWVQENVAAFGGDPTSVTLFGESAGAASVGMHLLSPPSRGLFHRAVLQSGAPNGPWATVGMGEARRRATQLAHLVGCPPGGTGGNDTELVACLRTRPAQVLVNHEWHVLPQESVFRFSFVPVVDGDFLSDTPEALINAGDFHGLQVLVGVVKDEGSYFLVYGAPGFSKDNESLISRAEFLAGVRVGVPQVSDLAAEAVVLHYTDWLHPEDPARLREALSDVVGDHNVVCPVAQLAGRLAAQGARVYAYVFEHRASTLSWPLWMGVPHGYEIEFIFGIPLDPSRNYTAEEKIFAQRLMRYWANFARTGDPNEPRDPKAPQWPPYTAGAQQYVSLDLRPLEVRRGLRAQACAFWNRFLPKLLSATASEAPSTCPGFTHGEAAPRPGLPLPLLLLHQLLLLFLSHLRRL
Assay: biochemical
Conditions: Concentration 3.92157 (unit not given); IC50 Raw Data sheet
Listing of entries alongside the reported % inhibition.
quantity measured: % inhibition

In [3]: df
Out[3]:
                                   molecule  quantity_measured  result_value
0  COc1ccc(CCN(CCCc2ccccc2)S(=O)(=O)c2ccc(C)cc2)cc1 [Compound 5g]       % inhibition      74.2824%
1  COc1ccc(CCN(Cc2ccc(C)cc2)S(=O)(=O)c2ccc(C)cc2)cc1 [Compound 5j]       % inhibition      89.2606%
2  COc1ccc(CCN(Cc2ccccc2C)S(=O)(=O)c2ccc(C)cc2)cc1 [Compound 5h]       % inhibition      96.0094%
3  COc1ccc(CCN(Cc2cccc(C)c2)S(=O)(=O)c2ccc(C)cc2)cc1 [Compound 5i]       % inhibition      98.1514%
